# Read-out: Pselectin, SELP (gene 6403)
# Experiment: BSK_4H_Pselectin: BioMAP Diversity Plus: 4H Assay for Pselectin Biomarker Activity (AID 2283026)
# Measurement parameters: primary human endothelial cells (HUVEC); actives raise or lower the signal
Activity calls are given as the source filed them. Rule for the calls: active = hit-call score of the fitted dose curve at least 0.9, where 1 is the maximum; inactive = score below 0.9.
Possible outcomes: active, inactive

>  <Molecule>
O=C(O)C(F)(F)C(F)(F)C(F)(F)C(F)(F)F

>  <Class name>
inactive

$$$$
>  <Molecule>
O=C(O)C(F)(OC(F)(F)C(F)(OC(F)(F)C(F)(OC(F)(F)C(F)(F)C(F)(F)F)C(F)(F)F)C(F)(F)F)C(F)(F)F (stereo unspecified)

>  <Class name>
inactive

$$$$
>  <Molecule>
CCCCC(CC)COP(=O)(O)OCC(CC)CCCC (stereo unspecified)

>  <Class name>
inactive

$$$$
>  <Molecule>
O=P(O)(O)OCCC(F)(F)C(F)(F)C(F)(F)C(F)(F)C(F)(F)C(F)(F)F

>  <Class name>
inactive

$$$$
>  <Molecule>
OCC(F)(F)C(F)(F)C(F)(F)C(F)(F)C(F)(F)C(F)F

>  <Class name>
inactive

$$$$
>  <Molecule>
FC(F)(F)C(F)(F)C(F)(F)C(F)(F)C(F)(F)C(F)(F)CCS

>  <Class name>
inactive

$$$$
>  <Molecule>
CC(=O)Nc1ccc(N=Nc2cc(C)ccc2O)cc1

>  <Class name>
active

$$$$
>  <Molecule>
FC(F)(F)C(F)(F)C(F)(F)N(C(F)(F)C(F)(F)C(F)(F)F)C(F)(F)C(F)(F)C(F)(F)F

>  <Class name>
inactive

$$$$
>  <Molecule>
Oc1ccc(Nc2ccccc2)cc1

>  <Class name>
inactive

$$$$
>  <Molecule>
CCCCCCC(C)OC(=O)CCCCC(=O)OC(C)CCCCCC (stereo unspecified)

>  <Class name>
inactive

$$$$
>  <Molecule>
O=C(O)C(F)(F)C(F)(F)OC(F)(F)F

>  <Class name>
inactive

$$$$
>  <Molecule>
CS(C)(=O)=O

>  <Class name>
inactive

$$$$
>  <Molecule>
FC(F)(F)C(F)(F)C(F)(F)C(F)(F)CCI

>  <Class name>
inactive

$$$$
>  <Molecule>
FC(F)(F)C(F)(F)C(F)(F)C(F)(F)C(F)(F)C(F)(F)C(F)(F)C(F)(F)CCS

>  <Class name>
inactive

$$$$
>  <Molecule>
O=C(O)C(F)(F)C(F)(F)C(F)(F)C(F)(F)C(F)(F)C(F)(F)C(F)(F)C(F)(F)C(F)(F)C(F)(F)C(F)(F)C(F)(F)F

>  <Class name>
inactive

$$$$
>  <Molecule>
C=CC(=O)OCC(F)(F)C(F)(F)C(F)(F)C(F)(F)C(F)(F)C(F)(F)C(F)(F)F

>  <Class name>
inactive

$$$$
>  <Molecule>
O=C(O)C(F)(OC(F)(F)C(F)(OC(F)(F)C(F)(F)C(F)(F)F)C(F)(F)F)C(F)(F)F (stereo unspecified)

>  <Class name>
inactive

$$$$
>  <Molecule>
O=C(Cl)C(F)(F)C(F)(F)C(F)(F)C(F)(F)C(F)(F)C(F)(F)C(F)(F)C(F)(F)F

>  <Class name>
inactive

$$$$
>  <Molecule>
O=C(O)C(F)(F)C(F)(F)C(F)(F)C(F)(F)C(F)(F)C(F)(F)C(F)(F)C(F)(F)C(F)(F)C(F)F

>  <Class name>
inactive

$$$$
>  <Molecule>
CCCCCCCCC(F)(F)C(F)(F)C(F)(F)C(F)(F)C(F)(F)C(F)(F)F

>  <Class name>
inactive

$$$$
>  <Molecule>
O=S(=O)(OCC(F)F)C(F)(F)F

>  <Class name>
inactive

$$$$
